- Test system: gene editing with Cas9
- assayProtocol: Screen of 322 new SSAP proteins, gene editing activity with Cas9 (Table 5)
- Assay type: cell-based
- measurementConditions: normalized
readoutKind: Cas9 with SSAP activity (normalized)
Give bare numbers.

Examples with their reported Cas9 with SSAP activity (normalized) follow.
| molecule | Cas9 with SSAP activity (normalized) |
| --- | --- |
| SSAP_178: SEQ ID NO: 347; Streptomyces sp. MZ04 (protein, listed as Streptomyces sp.) STNLAARVEARRQNPTTKQPARRGKAAQQPTLVQFVQSMRGEIARALPSHVASPERIARIALTELRRVDHLAECTQESFGGALMTCAALGLEPGGVGGEAYLLPFWNKKVRAYEVTLVIGYQGMVRLFWQHPAAAGLAAHTVHEGDEFDFEYGLEPFLRHKPARTGRGKPTDYYAVAKMANGGSAFVVMNVEDIEAIRHRSKARDAGPWSTDYGLRRHGAQDLHSAVVQVAAEVC | −0.929 |
| SSAP_265: SEQ ID NO: 434; Clostridium coskatii (protein, listed as Clostridium coskatii) SDKKMVVLNESHTMLNKLLETKQEALPKDFNKARFLQNCMTVLQDTKGIEQCQPITVARTMLKGAFLGLDFFNKECYAIPYKDNLQFQTDYKGEIKLAKKYSFNPIKDIYAKIVRQGDDFQEAIINGQQTINFTPVPFNNGEIIGAFAVCLFQDGSMLYETMAKQEIENTRKNFSKAPNSPAWTKTPGEMYKKTVLRRLCKLIELDFDSVECKKVYNETSDFEFENQQHEVSNFDKKDIDEDKIVEADVEVQDDNENNVPEDGE | −0.510 |
| SSAP_109: SEQ ID NO: 278; Bacillus (multispecies) (protein, listed as Bacillus sp.) TQAEKLKNDIAKQEQKNEVAQDDKPKTILDVMMQHKESFEMALPKHLDADRLIRLAVTEFRKNPMLKECTPESLLGAVMQAAQVGLEPDALGSAYLVPYYNKNKNVKEVQLQIGYKGLIELVRRSGQVTSIVANEVYENDEFDFEYGINEKLYHKPTMDADRGKLKCFYAYARFKDGGHAFTVMSVEQINQIRDKFSKSQKNGKHFGPWADHYESMAKKTVIKQLVKYMPISVEIQNQITRDETVHSSFKEEPKPIYAFEESPDIIDAPIEN | −0.475 |
| SSAP_58: SEQ ID NO: 227; Pirellula sp. SH-Sr6A (protein, listed as Pirellula sp.) SEATKEAKPETAIAKKPNGIKDWLKSDALKTQIASVAPKHMAPERVMRIALNAVSRTPKLADCTPESFMRCLLDLSSWGLEPDGRHAHLIPYGTECTLVLDYKGLVTLAYRSGWVKKIHADVVFEGDIFVYSLGTVCQHIPWEFRDDANKPEHKGHFRAAYCVVTMADGIEKHEVMTASEIDAIKAKSRSGNSGPWKDHYTEMAKKTVYRRASKWLPLSPEQADAMERDDDRIIDAVSVAVTQRLSKAAMPLIGANETGDTE | −0.437 |
| SSAP_15: SEQ ID NO: 184 (protein) AKNELAKGSYLTDLQKLDGNTLRDFVDPKHQASPQELQALLAIVKGRNLNPFTKEVYFIKYGSAPAQIVVSKEAIMKRAEENPDFDGFEAGIVVETKDGAIERLTGTIVPKSATLRGGWCKVYRKDRSHAIEADADFAYYTTSKNLWQKMPALMIRKVAIVSAFREAFSESVGGLYTADEMQRETQAEVRARKMKEAYEEKLYLLTQMEAKSYKKTKSKNENEAKKTKEAEAIETVEEPTQDGNLEW | −0.850 |

Parameters: items (list). Returns: Cas9 with SSAP activity (normalized) for each item.
1. SSAP_1: SEQ ID NO: 172 (protein) ATNESLKNQLSTKKETGLGSAGNTIKGLMNSPAIKKRFEEVLKQRAPQYMSSIVNLVNSDINLKKCDQMSVVASCMVAATLDLPVDKNLGYAWVVPYGNKAQFQLGYKGYVQLALRTGQYKSINVIEIHEGELIDWNPLTEELKIDFSKKESDAVIGYAGYFELLNGFKKSTYWTKEQITKHKNKFSKSDFGWKKDFDAMARKTVLRNMLSKWGILSIEMQNAYTADQGIIKNEIIETGEVKENIEYIEADFESYEDNSIEEGGANE
2. SSAP_88: SEQ ID NO: 257; Raoultella planticola (protein, listed as Raoultella planticola) TKQPPIAKADLQKTQGTRVSSPKGNNDVISFINQPSMKEQLAAALPRHMTAERMIRIATTEIRKVPALASCDTMSFVSAIVQCSQLGLEPGGALGHAYLLPFGNKNEKSGKKNVQLIIGYRGMIDLARRSGQIASLSARVVREGDEFSYEFGLEEKLTHRPGENEDAPVTHVYAVARLKDGGTQFEVLTSKQIELVRSQSKAANSGPWVTHWEEMAKKTAIRRLFKYLPVSIEIQRAVSIDEKEALTIDPADTSVLTGEYSVINSESEE
3. SSAP_166: SEQ ID NO: 335; Blautia sp. OF03-15BH (protein, listed as Blautia sp.) NVKEELAQKAEITQKEVKLKKSMSISDMIRALQPEIKKALPSVVTPERFIRMALSALNTTPKLAECSQISVLAALMNAAQLGLEPNTPMGQAYLIPFNNKGKMECQFQIGYKGLLELVYRNPAIQIIQAQTVYENDYFEYELGLNSRLIHRPELEDRGEIRLFYGLFKMVNGGYGFEVMSRQEMDQYAARYSKSFASGFSPWENNYEDMAKKTMIKRVLKYAPVKIETARALINDESIKLHLSEDMSEVENETVVDGQAEEKAA

### Response
1: −0.814; 2: −1.524; 3: −0.432
